parameter: glass transition temperature (°C)

Below are worked cases with known answers.
| compound | unitsOfMeasure | numericReadout |
| --- | --- | --- |
| *c1ccc(Oc2ccc(-c3ccc(Oc4ccc(-c5nnc(*)c6c(-c7ccc(F)cc7)c(-c7ccc(F)cc7)c(-c7ccc(F)cc7)c(-c7ccc(F)cc7)c56)cc4)cc3)cc2)cc1 (repeat unit) | °C | 320.00 |
| *Oc1ccc(C(C)(C)c2ccc(Oc3nc(*)nc(Cl)n3)cc2)cc1 (repeat unit) | °C | 80.00 |
| */C=C/c1c(OC(=O)c2ccc(C(=O)Oc3ccc4ccccc4c3/C=C/c3cccc(*)n3)cc2)ccc2ccccc12 (repeat unit) | °C | 145.00 |
| *c1ccc(OCCCCCCN(CC)c2ccc(C(C#N)=C(C#N)C#N)cc2)c(-c2cc(-c3ccccc3)c3cc(Oc4ccc5nc(*)cc(-c6ccccc6)c5c4)ccc3n2)c1 (repeat unit) | °C | 175.00 |
| *CCC(=O)Nc1ccc(Oc2cccc(NC(=O)CCN3C(=O)c4ccc(C(=O)c5ccc6c(c5)C(=O)N(*)C6=O)cc4C3=O)c2)cc1 (repeat unit) | °C | 224.00 |

[I] *Oc1ccc(Oc2ccc(OC(*)=O)cc2)cc1 (repeat unit)
[II] *O[Si](*)(C)CCCCCCCCCCCn1c2ccccc2c2ccccc21 (repeat unit)
[III] *c1ccc(CC(=O)Nc2cccc3c(NC(=O)Cc4ccc(-c5sc(*)c(-c6ccccc6)c5-c5ccccc5)cc4)cccc23)cc1 (repeat unit)
[IV] */C(=C/c1cc(OC)c(/C=C(/c2ccc(*)cc2)c2ccc(OC)cc2)cc1OC)c1ccc(OC)cc1 (repeat unit)
[V] *Oc1ccc(Cc2ccc(OC(*)=O)c(C)c2)cc1C (repeat unit)
Problem: Put the items in order so that reported glass transition temperature rises from first to last. # output: labels, in the requested order
Solution: II, V, I, IV, III
(II: -45.00 °C, V: 51.00 °C, I: 118.00 °C, IV: 170.00 °C, III: 255.00 °C)

[1] *CCOCCOCCN1C(=O)c2ccc(C(=O)Oc3ccc(-c4ccc(OC(=O)c5ccc6c(c5)C(=O)N(*)C6=O)cc4)cc3)cc2C1=O (repeat unit)
[2] *Oc1ccc(NC(=O)c2cc(C(=O)Nc3ccc(Oc4ccc(C5(c6ccc(*)cc6)CC6CCC5C6)cc4)cc3)cc(C(C)(C)C)c2)cc1 (repeat unit)
Problem: Would you kindly point out which of 1 and 2 has the smaller glass transition temperature figure? Please respond with the label that marks your chosen entry.
Solution: 1
(1: 109.00 °C, 2: 272.00 °C)

---

parameter: glass transition temperature (°C)

| compound | numericReadout |
| --- | --- |
| *c1ccc(Cc2ccc(NC(=O)c3ccc(Oc4ccc5c(c4)C(=O)N(*)C5=O)cc3)cc2)cc1 (repeat unit) | 250.00 |
| *CC(CCl)O* (repeat unit) [Poly(epichlorohydrin)] | -22.22 |

[a] *c1ccc(-c2ccc(NC(=O)c3cccc(C(=O)Nc4ccc(-c5ccc(N6C(=O)c7ccc(-c8ccc9c(c8)C(=O)N(*)C9=O)cc7C6=O)cc5)cc4)c3)cc2)cc1 (repeat unit)
[b] *CCCCCOC(=O)NCCCCCCNC(=O)O* (repeat unit)
Problem: Please indicate which item has the smaller measured glass transition temperature: a versus b Could you answer with the label of the item you picked?
Solution: b

---

parameter: glass transition temperature (°C)

| compound | glass transition temperature [°C] |
| --- | --- |
| *CC(*)C(=O)OCCSCCC#N (repeat unit) | -50.00 |

[1] *c1ccc(Cc2ccc(N3C(=O)C(Cl)=C(Oc4ccc(C(C)(C)c5ccc(OC6=C(Cl)C(=O)N(*)C6=O)cc5)cc4)C3=O)cc2)cc1 (repeat unit)
[2] *c1ccc2c(c1)C(=O)N(c1ccc(NC(=O)C(F)(F)C(F)(F)C(F)(F)C(F)(F)C(=O)Nc3ccc(N4C(=O)c5ccc(C(*)(C(F)(F)F)C(F)(F)F)cc5C4=O)cc3)cc1)C2=O (repeat unit)
Problem: Which record shows the lower glass transition temperature: the first, 1 , or the second, 2 ? Could you answer with the label of the item you picked?
Solution: 1

---

parameter: glass transition temperature (°C)

Some entries whose results are on file:
| compound | numericReadout |
| --- | --- |
| *C(=O)OCC(C)(C)CSCC(C)(C)COC(=O)C1(C)CNC(*)(C)CN1 (repeat unit) | 40.00 |
| *Oc1cccc(OC(=O)c2cc(OCCCCC)cc(C(*)=O)c2)c1 (repeat unit) | 96.00 |
| *Oc1ccc(C(C)(CC)c2ccc(OC(*)=S)cc2)cc1 (repeat unit) | 102.00 |
| *CCCCCCCCCCOC(=O)c1cccc(C(=O)O*)c1 (repeat unit) | -22.50 |
| */C=C/c1cc(OCC(CC)CCCC)c(*)cc1-c1ccc(N(c2ccc(OC)cc2)c2ccc(OC)cc2)cc1 (repeat unit) | 163.00 |

[1] *CC#C/C(C#CCOC(=O)CCCCCCCCC(=O)O*)=C\c1ccc(C#Cc2ccc(C=C(C#Cc3ccccc3)C#Cc3ccccc3)cc2)cc1 (repeat unit)
[2] *C(=O)Nc1ccc(Oc2cccc(NC(=O)c3ccc4c(c3)C(=O)N(c3ccc(Oc5cccc(N6C(=O)c7ccc(*)cc7C6=O)c5)cc3)C4=O)c2)cc1 (repeat unit)
Problem: Pick one, 1 or 2 : lowest reported glass transition temperature. # respond with the chosen item's label
Solution: 1
(1: 60.00 °C, 2: 211.00 °C)

---

parameter: glass transition temperature (°C)

Solved entries (count: 3):
| molecule | numericReadout |
| --- | --- |
| *C(=O)c1ccc2c(c1)C(=O)N(c1ccc(Oc3ccc(S(=O)(=O)c4ccc(C)cc4)cc3)c(N3C(=O)c4ccc(*)cc4C3=O)c1)C2=O (repeat unit) | 293.00 |
| *C(=O)c1ccc2c(c1)C(=O)N(c1cccc(C#Cc3cccc(N4C(=O)c5ccc(*)cc5C4=O)c3)c1)C2=O (repeat unit) | 294.00 |
| *c1ccc2c(c1)C(=O)N(c1ccc(Sc3ccc(Sc4ccc(N5C(=O)c6ccc(C(*)(C(F)(F)F)C(F)(F)F)cc6C5=O)cc4)cc3)cc1)C2=O (repeat unit) | 257.00 |

[a] *OC(=O)C(C)NC(=O)CCCCCCCC(=O)NC(C)C(=O)OC1COC2C(*)COC12 (repeat unit)
[b] *CCCCCOc1ccc(OC(=O)c2ccc(C(=O)Oc3ccc(O*)cc3)cc2)cc1 (repeat unit)
Problem: Lab notebook, comparison: a versus b , higher glass transition temperature goes to which? Answer by stating the label of the chosen item.
Solution: b

[A] *Oc1ccc(Oc2ccc(NC(=C(C#N)C#N)c3cccc(C(Nc4ccc(*)cc4)=C(C#N)C#N)c3)cc2)cc1 (repeat unit)
[B] *Nc1ccc(NC(=O)c2ccc(NC(=O)c3ccc([Si](C)(C)c4ccc(C(=O)Nc5ccc(C(*)=O)cc5)cc4)cc3)cc2)cc1 (repeat unit)
[C] *Oc1ccc(CC(NC(=O)CCc2ccc(OC(=O)CCCCCCCCC(*)=O)cc2)C(=O)OCC(C)C)cc1 (repeat unit)
[D] *CC(*)(C)C(=O)OCCCCCCCCCCn1c2ccccc2c2cc(/C=C/C3=C(C#N)C(=C(C#N)C#N)OC3(C)C)ccc21 (repeat unit)
[E] *CCOCCOc1ccc(NC(=O)c2cccc(C(=O)Nc3ccc(O*)cc3)c2)cc1 (repeat unit)
Problem: Please rank these molecules by glass transition temperature in descending order. Form field (ranking): labels in requested order.
Solution: B, A, E, D, C
(B: 338.00 °C, A: 228.00 °C, E: 155.00 °C, D: 55.00 °C, C: 33.00 °C)

---

parameter: glass transition temperature (°C)

Some entries whose results are on file:
| compound | glass transition temperature, °C |
| --- | --- |
| *Cc1ccc(C(C)(C)c2ccc(CN3C(=O)c4ccc(C(c5ccc6c(c5)C(=O)N(*)C6=O)(C(F)(F)F)C(F)(F)F)cc4C3=O)o2)o1 (repeat unit) | 134.00 |
| *C(=O)c1ccccc1-c1ccccc1C(=O)N1CCN(*)CC1 (repeat unit) | 193.00 |
| *Oc1ccc(C2(c3ccc(OC(*)=O)cc3)CCc3ccccc32)cc1 (repeat unit) | 219.00 |
| *CCc1ccc(*)c(CC)c1 (repeat unit) | 25.00 |
| *C(=O)Nc1ccc(Oc2ccc(NC(=O)c3ccc4c(c3)C(=O)N(c3ccc(Oc5cccc6c(N7C(=O)c8ccc(*)cc8C7=O)cccc56)cc3)C4=O)cc2)cc1 (repeat unit) | 278.00 |
| *c1cc(C(c2ccc(OCCN(C)c3ccc(/C=C/C4=CC(=C(/C#N)S(C)(=O)=O)/CC(C)(C)C4)cc3)c(N3C(=O)c4ccc(Oc5ccc6c(c5)C(=O)N(*)C6=O)cc4C3=O)c2)(C(F)(F)F)C(F)(F)F)ccc1OCCN(C)c1ccc(/C=C/C2=CC(=C(/C#N)S(C)(=O)=O)/CC(C)(C)C2)cc1 (repeat unit) | 225.00 |
| *c1ccc(-c2cnc3cc(Oc4ccc5nc(*)cnc5c4)ccc3n2)cc1 (repeat unit) | 306.00 |
| *COC1OC(*)C(O)C(O)C1O (repeat unit) | 200.00 |
| *CC(O)COc1ccc(C(C)(C)c2ccc(OCC(O)COc3cccc(NC(=O)CCCCCC(=O)Nc4cccc(O*)c4)c3)cc2)cc1 (repeat unit) | 107.00 |
| *Nc1ccc(NC(=O)c2cc(-c3ccc(C(=O)OCC)c(C(*)=O)c3)ccc2C(=O)OCC)cc1 (repeat unit) | 231.70 |

[I] *Oc1ccc(Sc2ccc(Sc3ccc(Sc4ccc(*)cc4)cc3)cc2)cc1 (repeat unit)
[II] *c1ccc(Oc2ccc(Oc3ccc(N4C(=O)c5ccc(-c6cccc7c6C(=O)N(*)C7=O)cc5C4=O)cc3)cc2)cc1 (repeat unit)
[III] *Oc1ccc(NC(=O)CCCCCC(=O)Nc2ccc(*)cc2)cc1 (repeat unit)
Problem: Task field, ranking: reported glass transition temperature, descending order. Give the labels in the order specified.
Solution: II, III, I

[a] *CC(CO*)(CS(=O)(=O)CCC)CS(=O)(=O)CCC (repeat unit)
[b] *Oc1ccc(C(=O)c2cccc(C(=O)c3ccc(*)c(C(C)C)c3)c2)cc1CC (repeat unit)
[c] *Oc1ccc(CC(NC(=O)CCc2ccc(OC(=O)CCCC(*)=O)cc2)C(=O)OCCCCCC)cc1 (repeat unit)
Problem: With regard to glass transition temperature, arrange the entries in ascending order, please. List the labels according to the requested ordering.
Solution: c, a, b
(c: 43.00 °C, a: 71.00 °C, b: 136.00 °C)
